Where these numbers come from: ChEMBL document CHEMBL5356973

Measured Emax, listed per entry.
Target: Neuropeptide FF receptor 2 (Homo sapiens, UniProt Q9Y5X5)
Sequence (Q9Y5X5 whole entry): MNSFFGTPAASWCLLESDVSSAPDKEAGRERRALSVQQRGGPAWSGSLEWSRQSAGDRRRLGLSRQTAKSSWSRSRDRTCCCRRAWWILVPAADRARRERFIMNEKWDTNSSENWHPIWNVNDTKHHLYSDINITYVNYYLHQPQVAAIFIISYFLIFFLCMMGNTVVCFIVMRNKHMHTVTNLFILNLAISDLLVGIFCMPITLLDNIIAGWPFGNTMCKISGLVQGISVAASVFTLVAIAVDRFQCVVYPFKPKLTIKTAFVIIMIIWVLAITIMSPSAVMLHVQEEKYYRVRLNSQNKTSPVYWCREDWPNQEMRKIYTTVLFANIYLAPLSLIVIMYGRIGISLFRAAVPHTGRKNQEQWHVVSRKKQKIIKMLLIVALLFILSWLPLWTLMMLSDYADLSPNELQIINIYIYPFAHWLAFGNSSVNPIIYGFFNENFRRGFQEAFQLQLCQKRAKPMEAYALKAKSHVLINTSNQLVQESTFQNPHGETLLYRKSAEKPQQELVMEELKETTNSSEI
Assay: Agonist activity at NPFF2R (unknown origin) transfected in HEK293 cells co-expressing Galphaq15 assessed as increase in calcium mobilization by measuring maximal efficacy by Fluo-4AM dye based assay relative to control
Type: functional, cell-based
Conditions: filed as agonist
outcome_measure: Emax (%)

* CN1C(=O)CNC(=O)[C@H](N[C@@H](Cc2ccc(O)cc2)C(=O)O)CCCC/C=C/C[C@@H](C(=O)N2CCC[C@H]2C(=O)N[C@@H](CCC(N)=O)C(=O)N[C@@H](CCCNC(=N)N)C(=O)N[C@@H](Cc2ccccc2)C(N)=O)NC(=O)[C@@H]1Cc1ccccc1 | 119
* CN1C(=O)CNC(=O)[C@H](N[C@@H](Cc2ccc(O)cc2)C(=O)O)CCCC/C=C\CC[C@@H](C(=O)N2CCC[C@H]2C(=O)N[C@@H](CCC(N)=O)C(=O)N[C@@H](CCCNC(=N)N)C(=O)N[C@@H](Cc2ccccc2)C(N)=O)NC(=O)[C@@H]1Cc1ccccc1 | 88.6
* CN1C(=O)CNC(=O)[C@H](N[C@@H](Cc2ccc(O)cc2)C(=O)O)CCCC/C=C/CC[C@@H](C(=O)N2CCC[C@H]2C(=O)N[C@@H](CCC(N)=O)C(=O)N[C@@H](CCCNC(=N)N)C(=O)N[C@@H](Cc2ccccc2)C(N)=O)NC(=O)[C@@H]1Cc1ccccc1 | 125
* CN1C(=O)CNC(=O)[C@@H](N[C@@H](Cc2ccc(O)cc2)C(=O)O)C/C=C/CCCC[C@H](C(=O)N2CCC[C@H]2C(=O)N[C@@H](CCC(N)=O)C(=O)N[C@@H](CCCNC(=N)N)C(=O)N[C@@H](Cc2ccccc2)C(N)=O)NC(=O)[C@@H]1Cc1ccccc1 | 40.9

* * *

Target: Neuropeptide FF receptor 2 (Homo sapiens)
Assay: Agonist activity at NPFF2R (unknown origin) transfected in HEK293 cells co-expressing Galphaq15 assessed as increase in calcium mobilization by measuring maximal efficacy by Fluo-4AM dye based assay relative to control
Type: functional, cell-based
Conditions: filed as agonist
outcome_measure: Emax (%)

* CN1C(=O)CNC(=O)[C@H](N[C@@H](Cc2ccc(O)cc2)C(=O)O)CCC/C=C/CC[C@@H](C(=O)N2CCC[C@H]2C(=O)N[C@@H](CCC(N)=O)C(=O)N[C@@H](CCCNC(=N)N)C(=O)N[C@@H](Cc2ccccc2)C(N)=O)NC(=O)[C@@H]1Cc1ccccc1 | 118
* CN1C(=O)CNC(=O)[C@H](N[C@@H](Cc2ccc(O)cc2)C(=O)O)CCC/C=C/C[C@@H](C(=O)N2CCC[C@H]2C(=O)N[C@@H](CCC(N)=O)C(=O)N[C@@H](CCCNC(=N)N)C(=O)N[C@@H](Cc2ccccc2)C(N)=O)NC(=O)[C@@H]1Cc1ccccc1 | 77.9
* CN1C(=O)CNC(=O)[C@H](N[C@@H](Cc2ccc(O)cc2)C(=O)O)CCCC/C=C\C[C@@H](C(=O)N2CCC[C@H]2C(=O)N[C@@H](CCC(N)=O)C(=O)N[C@@H](CCCNC(=N)N)C(=O)N[C@@H](Cc2ccccc2)C(N)=O)NC(=O)[C@@H]1Cc1ccccc1 | 89.2

* * *

Biological target: Delta-type opioid receptor (Homo sapiens)
Sequence (P41143 whole entry): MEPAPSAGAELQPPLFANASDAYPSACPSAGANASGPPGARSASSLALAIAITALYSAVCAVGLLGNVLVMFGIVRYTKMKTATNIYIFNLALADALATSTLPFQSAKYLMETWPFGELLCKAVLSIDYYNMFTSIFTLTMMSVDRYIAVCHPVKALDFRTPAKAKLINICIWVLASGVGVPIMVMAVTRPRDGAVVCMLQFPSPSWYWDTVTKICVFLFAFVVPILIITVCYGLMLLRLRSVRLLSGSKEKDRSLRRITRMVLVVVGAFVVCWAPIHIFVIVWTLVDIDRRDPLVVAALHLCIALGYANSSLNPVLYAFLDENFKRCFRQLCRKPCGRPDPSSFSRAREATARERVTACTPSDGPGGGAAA
Assay: Agonist activity at DOR (unknown origin) transfected in CHO cells co-expressing Galphaq15 assessed as increase in calcium mobilization by Fluo-4AM dye based assay
The compounds listed here are annotated with their EC50.
outcome_measure: EC50

* CN1C(=O)CNC(=O)[C@H](N[C@@H](Cc2ccc(O)cc2)C(=O)O)CCCC/C=C\CC[C@@H](C(=O)N2CCC[C@H]2C(=O)N[C@@H](CCC(N)=O)C(=O)N[C@@H](CCCNC(=N)N)C(=O)N[C@@H](Cc2ccccc2)C(N)=O)NC(=O)[C@@H]1Cc1ccccc1 | 58.2 nM
* CN1C(=O)CNC(=O)[C@H](N[C@@H](Cc2ccc(O)cc2)C(=O)O)CCCC/C=C/C[C@@H](C(=O)N2CCC[C@H]2C(=O)N[C@@H](CCC(N)=O)C(=O)N[C@@H](CCCNC(=N)N)C(=O)N[C@@H](Cc2ccccc2)C(N)=O)NC(=O)[C@@H]1Cc1ccccc1 | 228 nM
* CN1C(=O)CNC(=O)[C@H](N[C@@H](Cc2ccc(O)cc2)C(=O)O)CCC/C=C/C[C@@H](C(=O)N2CCC[C@H]2C(=O)N[C@@H](CCC(N)=O)C(=O)N[C@@H](CCCNC(=N)N)C(=O)N[C@@H](Cc2ccccc2)C(N)=O)NC(=O)[C@@H]1Cc1ccccc1 | 27.7 nM
* CN1C(=O)CNC(=O)[C@@H](N[C@@H](Cc2ccc(O)cc2)C(=O)O)C/C=C/CCCC[C@H](C(=O)N2CCC[C@H]2C(=O)N[C@@H](CCC(N)=O)C(=O)N[C@@H](CCCNC(=N)N)C(=O)N[C@@H](Cc2ccccc2)C(N)=O)NC(=O)[C@@H]1Cc1ccccc1 | 8920 nM

* * *

Assay: Metabolic stability in mouse brain homogenate assessed as degradation half life at 10 mM measured upto 480 mins by RP-HPLC analysis
Type: ADME, tissue-based
Assign class by half-life at 10000 µM: not lower than 2 h means condition met; lower than 2 h means condition not met.

- CN1C(=O)CNC(=O)[C@@H](N[C@@H](Cc2ccc(O)cc2)C(=O)O)C/C=C/CCCC[C@H](C(=O)N2CCC[C@H]2C(=O)N[C@@H](CCC(N)=O)C(=O)N[C@@H](CCCNC(=N)N)C(=O)N[C@@H](Cc2ccccc2)C(N)=O)NC(=O)[C@@H]1Cc1ccccc1: condition not met
- CN1C(=O)CNC(=O)[C@H](N[C@@H](Cc2ccc(O)cc2)C(=O)O)CCC/C=C/C[C@@H](C(=O)N2CCC[C@H]2C(=O)N[C@@H](CCC(N)=O)C(=O)N[C@@H](CCCNC(=N)N)C(=O)N[C@@H](Cc2ccccc2)C(N)=O)NC(=O)[C@@H]1Cc1ccccc1: condition not met
- CN1C(=O)CNC(=O)[C@H](N[C@@H](Cc2ccc(O)cc2)C(=O)O)CCC/C=C/CC[C@@H](C(=O)N2CCC[C@H]2C(=O)N[C@@H](CCC(N)=O)C(=O)N[C@@H](CCCNC(=N)N)C(=O)N[C@@H](Cc2ccccc2)C(N)=O)NC(=O)[C@@H]1Cc1ccccc1: condition not met
- CN1C(=O)CNC(=O)[C@H](N[C@@H](Cc2ccc(O)cc2)C(=O)O)CCCC/C=C\C[C@@H](C(=O)N2CCC[C@H]2C(=O)N[C@@H](CCC(N)=O)C(=O)N[C@@H](CCCNC(=N)N)C(=O)N[C@@H](Cc2ccccc2)C(N)=O)NC(=O)[C@@H]1Cc1ccccc1: condition not met
- CN1C(=O)CNC(=O)[C@H](N[C@@H](Cc2ccc(O)cc2)C(=O)O)CCCC/C=C/C[C@@H](C(=O)N2CCC[C@H]2C(=O)N[C@@H](CCC(N)=O)C(=O)N[C@@H](CCCNC(=N)N)C(=O)N[C@@H](Cc2ccccc2)C(N)=O)NC(=O)[C@@H]1Cc1ccccc1: condition met

* * *

Listing: Emax of selected molecules
Experiment: Agonist activity at NPFF1R (unknown origin) transfected in CHO cells co-expressing Galphaq15 assessed as increase in calcium mobilization by measuring maximal efficacy by Fluo-4AM dye based assay relative to control
Format: functional, cell-based
Settings: Homo sapiens, filed as agonist
outcome_measure: Emax (%)

* CN1C(=O)CNC(=O)[C@H](N[C@@H](Cc2ccc(O)cc2)C(=O)O)CCC/C=C/CC[C@@H](C(=O)N2CCC[C@H]2C(=O)N[C@@H](CCC(N)=O)C(=O)N[C@@H](CCCNC(=N)N)C(=O)N[C@@H](Cc2ccccc2)C(N)=O)NC(=O)[C@@H]1Cc1ccccc1 | 91.8
* CC(C)C[C@H](NC(=O)[C@@H](N)Cc1ccccc1)C(=O)N[C@@H](Cc1ccccc1)C(=O)N[C@@H](CCC(N)=O)C(=O)N1CCC[C@H]1C(=O)N[C@@H](CCC(N)=O)C(=O)N[C@@H](CCCN=C(N)N)C(=O)N[C@@H](Cc1ccccc1)C(N)=O | 97.9
* CN1C(=O)CNC(=O)[C@H](N[C@@H](Cc2ccc(O)cc2)C(=O)O)CCC/C=C/C[C@@H](C(=O)N2CCC[C@H]2C(=O)N[C@@H](CCC(N)=O)C(=O)N[C@@H](CCCNC(=N)N)C(=O)N[C@@H](Cc2ccccc2)C(N)=O)NC(=O)[C@@H]1Cc1ccccc1 | 129
* CN1C(=O)CNC(=O)[C@H](N[C@@H](Cc2ccc(O)cc2)C(=O)O)CCCC/C=C\C[C@@H](C(=O)N2CCC[C@H]2C(=O)N[C@@H](CCC(N)=O)C(=O)N[C@@H](CCCNC(=N)N)C(=O)N[C@@H](Cc2ccccc2)C(N)=O)NC(=O)[C@@H]1Cc1ccccc1 | 93.7

* * *

Molecular target: Kappa-type opioid receptor (Homo sapiens, UniProt P41145)
Sequence (P41145 whole entry): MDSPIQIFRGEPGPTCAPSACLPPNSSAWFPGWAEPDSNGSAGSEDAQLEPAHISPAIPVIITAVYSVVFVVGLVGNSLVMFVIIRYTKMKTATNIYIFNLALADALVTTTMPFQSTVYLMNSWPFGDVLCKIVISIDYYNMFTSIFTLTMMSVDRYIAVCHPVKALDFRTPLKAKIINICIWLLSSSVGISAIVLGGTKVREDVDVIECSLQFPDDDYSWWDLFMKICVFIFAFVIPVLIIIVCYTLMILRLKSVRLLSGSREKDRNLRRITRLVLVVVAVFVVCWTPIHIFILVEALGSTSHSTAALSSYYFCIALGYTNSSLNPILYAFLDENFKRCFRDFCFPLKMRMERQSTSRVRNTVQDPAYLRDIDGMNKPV
Experiment: Agonist activity at KOR (unknown origin) transfected in CHO cells co-expressing Galphaq15 assessed as increase in calcium mobilization by Fluo-4AM dye based assay
pEC50: −log10 of the molar value.
outcome_measure: pEC50

• CN1C(=O)CNC(=O)[C@H](N[C@@H](Cc2ccc(O)cc2)C(=O)O)CCCC/C=C\CC[C@@H](C(=O)N2CCC[C@H]2C(=O)N[C@@H](CCC(N)=O)C(=O)N[C@@H](CCCNC(=N)N)C(=O)N[C@@H](Cc2ccccc2)C(N)=O)NC(=O)[C@@H]1Cc1ccccc1 = 6.30
• CN1C(=O)CNC(=O)[C@H](N[C@@H](Cc2ccc(O)cc2)C(=O)O)CCCC/C=C\C[C@@H](C(=O)N2CCC[C@H]2C(=O)N[C@@H](CCC(N)=O)C(=O)N[C@@H](CCCNC(=N)N)C(=O)N[C@@H](Cc2ccccc2)C(N)=O)NC(=O)[C@@H]1Cc1ccccc1 = 6.77
• CN1C(=O)CNC(=O)[C@@H](N[C@@H](Cc2ccc(O)cc2)C(=O)O)C/C=C/CCCC[C@H](C(=O)N2CCC[C@H]2C(=O)N[C@@H](CCC(N)=O)C(=O)N[C@@H](CCCNC(=N)N)C(=O)N[C@@H](Cc2ccccc2)C(N)=O)NC(=O)[C@@H]1Cc1ccccc1 = 5.91
